Parameter pIC50, tested on ALK kinase (Homo sapiens, UniProt Q9UM73), listed per item.
Sequence (Q9UM73 19-1620): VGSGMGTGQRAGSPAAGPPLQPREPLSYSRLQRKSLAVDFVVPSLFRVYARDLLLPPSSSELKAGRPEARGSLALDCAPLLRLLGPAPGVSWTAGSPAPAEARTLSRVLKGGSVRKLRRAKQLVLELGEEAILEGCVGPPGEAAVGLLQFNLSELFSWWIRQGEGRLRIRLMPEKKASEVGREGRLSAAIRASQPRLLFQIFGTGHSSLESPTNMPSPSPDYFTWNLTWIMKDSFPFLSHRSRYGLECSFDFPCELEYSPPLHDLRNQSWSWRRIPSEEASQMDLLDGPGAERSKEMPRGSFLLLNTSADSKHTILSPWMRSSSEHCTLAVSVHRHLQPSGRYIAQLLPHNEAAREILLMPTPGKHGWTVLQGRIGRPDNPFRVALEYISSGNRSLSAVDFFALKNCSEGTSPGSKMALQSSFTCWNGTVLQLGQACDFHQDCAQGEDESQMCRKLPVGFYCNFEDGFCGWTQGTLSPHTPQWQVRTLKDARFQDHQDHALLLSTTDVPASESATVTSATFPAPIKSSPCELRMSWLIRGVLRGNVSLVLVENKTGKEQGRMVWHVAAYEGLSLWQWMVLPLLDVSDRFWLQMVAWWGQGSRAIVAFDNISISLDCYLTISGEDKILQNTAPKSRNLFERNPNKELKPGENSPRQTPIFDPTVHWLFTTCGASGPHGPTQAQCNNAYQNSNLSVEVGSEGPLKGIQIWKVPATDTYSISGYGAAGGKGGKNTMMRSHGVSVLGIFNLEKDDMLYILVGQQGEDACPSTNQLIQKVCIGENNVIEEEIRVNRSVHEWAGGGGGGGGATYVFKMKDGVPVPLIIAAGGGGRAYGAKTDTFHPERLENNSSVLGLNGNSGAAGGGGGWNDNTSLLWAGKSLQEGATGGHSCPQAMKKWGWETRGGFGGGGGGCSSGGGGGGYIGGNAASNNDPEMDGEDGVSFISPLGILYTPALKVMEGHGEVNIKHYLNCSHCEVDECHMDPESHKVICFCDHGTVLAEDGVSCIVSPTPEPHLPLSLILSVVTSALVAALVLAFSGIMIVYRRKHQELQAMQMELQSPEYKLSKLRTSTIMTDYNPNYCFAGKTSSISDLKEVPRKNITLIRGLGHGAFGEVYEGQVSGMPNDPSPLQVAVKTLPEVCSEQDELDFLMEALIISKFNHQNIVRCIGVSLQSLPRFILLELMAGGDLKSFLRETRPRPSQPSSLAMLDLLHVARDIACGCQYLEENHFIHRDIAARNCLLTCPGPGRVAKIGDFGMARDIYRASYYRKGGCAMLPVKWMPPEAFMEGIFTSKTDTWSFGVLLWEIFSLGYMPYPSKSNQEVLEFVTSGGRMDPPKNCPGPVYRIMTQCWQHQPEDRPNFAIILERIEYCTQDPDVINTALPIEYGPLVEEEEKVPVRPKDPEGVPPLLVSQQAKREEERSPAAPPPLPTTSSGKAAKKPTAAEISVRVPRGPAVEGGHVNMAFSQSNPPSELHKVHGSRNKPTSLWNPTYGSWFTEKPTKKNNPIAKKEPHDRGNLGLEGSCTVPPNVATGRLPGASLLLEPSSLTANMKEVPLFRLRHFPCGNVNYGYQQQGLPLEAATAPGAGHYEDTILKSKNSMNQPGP
Please treat pIC50 as minus the base-10 logarithm of the molar concentration.

Reference set, count: 5
{"columns": ["compound", "pIC50"],
 "data": [
  ["C#Cc1ccc2c3c([nH]c2c1)C(C)(C)c1cc(N2CCC(N4CCCC4)CC2)c(CC)cc1C3=O", 7.86],
  ["CCc1cc2c(cc1N1CCC(N3CCOCC3)CC1)C(C)(C)c1[nH]c3cc(C#CC4CC4)ccc3c1C2=O", 7.42],
  ["C#Cc1ccc2c3c([nH]c2c1)C(C)(C)c1cc(N2CCC(N4CCOCC4)CC2)c(Cl)cc1C3=O", 8.58],
  ["C#Cc1ccc2c3c([nH]c2c1)C(C)(C)c1cc(N2CCN(C)CC2)c(C#N)cc1C3=O", 8.24],
  ["C#Cc1ccc2c3c([nH]c2c1)C(C)(C)c1cc(N2CCC(N(C)C)CC2)c(Cl)cc1C3=O", 7.89]
]}

Q: What value of pIC50 on ALK kinase (Homo sapiens, UniProt Q9UM73) does C#Cc1ccc2c3c([nH]c2c1)C(C)(C)c1cc(N2CCC(N4CCOCC4)CC2)c(CC)cc1C3=O [Example E1] have?
Result: 8.29

Q: Recorded pIC50 for C#Cc1ccc2c3c([nH]c2c1)C(C)(C)c1cc(N2CCN(C)CC2)c(CC)cc1C3=O [Example E2] with ALK kinase (Homo sapiens, UniProt Q9UM73), please?
Result: 8.13

The origin of these recorded values is patent EP4321514B1.
